test system: LNCaP; test: Inhibition of cellular AMPK in human LNCaP cells assessed as reduction in pACC1 levels in cell lysates by HTRF assay
MEASURED METRIC: IC50

Consider CCc1ccccc1C(=O)Nc1n[nH]c2c(C)c(F)c(C3C(C#N)=C(C)N(C)C(C)=C3C#N)cc12 . Its measured IC50 is ~0.1 µM

---

molecular target: 5'-AMP-activated protein kinase catalytic subunit alpha-1 (Homo sapiens, UniProt Q13131); assay: Inhibition of AMPKalpha1 (unknown origin)
Sequence (Q13131 whole entry): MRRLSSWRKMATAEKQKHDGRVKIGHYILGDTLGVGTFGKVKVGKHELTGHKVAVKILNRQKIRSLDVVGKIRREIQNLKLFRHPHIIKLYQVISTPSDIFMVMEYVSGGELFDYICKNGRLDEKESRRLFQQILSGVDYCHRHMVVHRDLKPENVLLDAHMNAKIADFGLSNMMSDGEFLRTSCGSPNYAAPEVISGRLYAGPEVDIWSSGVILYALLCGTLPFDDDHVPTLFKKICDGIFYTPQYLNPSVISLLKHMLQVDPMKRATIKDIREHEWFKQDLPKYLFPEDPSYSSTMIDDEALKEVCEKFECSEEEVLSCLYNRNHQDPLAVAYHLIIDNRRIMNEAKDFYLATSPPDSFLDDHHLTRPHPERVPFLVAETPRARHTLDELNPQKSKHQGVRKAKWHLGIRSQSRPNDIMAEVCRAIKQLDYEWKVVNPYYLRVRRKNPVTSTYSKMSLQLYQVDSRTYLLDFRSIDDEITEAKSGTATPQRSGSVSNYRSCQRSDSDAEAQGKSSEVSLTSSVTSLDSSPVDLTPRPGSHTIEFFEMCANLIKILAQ
MEASURED METRIC: IC50 (nM)
Quick reminder: number only, in nM, skip the unit.

Reported IC50 of CNC(=O)c1ccccc1Oc1nc(Nc2cc(OC)c(OC)c(OC)c2)ncc1Br : 400

---

test system: IMR-32; assay: Inhibition of cellular AMPK in human IMR-32 cells assessed as reduction in pACC1 levels in cell lysates by HTRF assay
MEASURED METRIC: IC50

Sure, the documented IC50 for CCc1ccccc1C(=O)Nc1n[nH]c2c(C)c(F)c(C3C(C#N)=C(C)N(C)C(C)=C3C#N)cc12 is ~150 nM

---

assay: Inhibition of full length GST-tagged human AMPKalpha2/beta1/gamma1 using HMRSAMSFAEPG biotinylated peptide as substrate in presence of 10 uM ATP by TR-FRET assay
MEASURED METRIC: pIC50
In textbook form, pIC50 equals minus log to base ten of the concentration in mol/L.

The value of pIC50 measured for the molecule CCc1ccccc1C(=O)Nc1n[nH]c2c(C)c(F)c(C3C(C#N)=C(C)N(C)C(C)=C3C#N)cc12 [BAY-3827] turned out to be 8.85
